# Protocol summary: solvent given as SMILES
# Condition parameters: in c1ccncc1
Attribute measured: absorption maximum (nm)
Provide only the numeric value, understood in nm.

Recorded absorption maximum (compound `CN(C)c1ccc(/C=C/c2cc[n+](CCC[n+]3ccc(/C=C/c4ccc(N(C)C)cc4)cc3)cc2)cc1` ): 498

absorption maximum in this record for `OC1(c2ccc(-c3cccs3)s2)CCCC1` : 348

Consider `N#CC1=C(c2ccc(-c3cccs3)s2)CC1` . Its measured absorption maximum is 372

// absorption maximum value for `CCCCCCCCOc1ccc2c3cccc4c(OCCCCCCCC)ccc(c5cccc1c52)c43` : 464

Sample `N#Cc1ccc(-c2ccc(C3=CCCCC3)s2)s1` ; absorption maximum observed: 369
